In this section, each of the molecules is paired with its reported Activity.
# target system: UniProtKB P29477
# Sequence (P29477 whole entry): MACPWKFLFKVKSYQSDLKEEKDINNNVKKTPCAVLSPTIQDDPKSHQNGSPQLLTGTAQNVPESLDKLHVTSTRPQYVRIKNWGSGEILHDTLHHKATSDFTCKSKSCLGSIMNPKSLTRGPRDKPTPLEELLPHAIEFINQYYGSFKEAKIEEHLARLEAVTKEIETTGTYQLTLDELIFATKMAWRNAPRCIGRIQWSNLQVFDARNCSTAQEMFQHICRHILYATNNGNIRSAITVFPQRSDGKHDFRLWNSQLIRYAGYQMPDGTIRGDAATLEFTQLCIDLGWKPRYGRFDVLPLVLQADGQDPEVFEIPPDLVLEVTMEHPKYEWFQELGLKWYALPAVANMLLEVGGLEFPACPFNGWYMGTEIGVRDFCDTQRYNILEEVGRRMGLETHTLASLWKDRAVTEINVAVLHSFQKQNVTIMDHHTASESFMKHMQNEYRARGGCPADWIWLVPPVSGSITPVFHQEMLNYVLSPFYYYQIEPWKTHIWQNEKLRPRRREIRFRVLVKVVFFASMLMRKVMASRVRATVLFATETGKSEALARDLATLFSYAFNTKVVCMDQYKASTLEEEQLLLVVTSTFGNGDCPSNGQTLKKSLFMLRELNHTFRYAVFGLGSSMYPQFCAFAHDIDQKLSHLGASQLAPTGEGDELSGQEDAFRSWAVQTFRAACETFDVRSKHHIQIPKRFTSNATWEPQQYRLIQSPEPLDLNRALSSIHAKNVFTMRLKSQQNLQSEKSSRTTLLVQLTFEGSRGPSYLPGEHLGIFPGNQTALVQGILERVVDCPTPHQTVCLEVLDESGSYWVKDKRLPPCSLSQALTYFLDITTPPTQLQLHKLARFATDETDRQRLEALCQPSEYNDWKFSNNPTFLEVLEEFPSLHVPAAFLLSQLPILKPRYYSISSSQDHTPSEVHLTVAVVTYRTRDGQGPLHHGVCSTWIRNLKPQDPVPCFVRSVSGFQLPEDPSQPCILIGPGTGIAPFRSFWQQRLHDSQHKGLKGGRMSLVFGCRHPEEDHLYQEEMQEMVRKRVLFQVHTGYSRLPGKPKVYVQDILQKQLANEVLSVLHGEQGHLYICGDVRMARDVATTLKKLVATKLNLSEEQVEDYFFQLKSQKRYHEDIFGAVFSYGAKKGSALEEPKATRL
# test method notes: Inhibition of mouse iNOS expressed in insect Sf9 cells assessed as residual activity at 100 uM by Griess assay relative to control

# molecule, measure unit, Activity
records = [
    ("CC1=CC=CN2CC(C(=O)c3ccc(C)cc3)CN=C12 (stereo unspecified)", "%", 100),
    ("O=C(c1ccc2ccccc2c1)C1CN=C2C=CC=CN2C1 (stereo unspecified)", "%", 97),
    ("CC1=CC2=NCC(C(=O)c3ccc(Cl)cc3)CN2C=C1 (stereo unspecified)", "%", 28),
    ("CC1=CC2=NCC(C(=O)c3ccc4cc(C)ccc4c3)CN2C=C1.[O-][Cl+3]([O-])([O-])O (stereo unspecified)", "%", 90),
    ("CC1=CC=CN2CC(C(=O)c3ccccc3)CN=C12 (stereo unspecified)", "%", 103),
    ("O=C(c1ccccc1)C1CN=C2C=CC=CN2C1 (stereo unspecified)", "%", 102),
    ("COc1ccc(C(=O)C2CN=C3C=CC=C(C)N3C2)cc1OC.[O-][Cl+3]([O-])([O-])O (stereo unspecified)", "%", 95),
    ("CC1=CC2=NCC(C(=O)c3ccc(Br)cc3)CN2C=C1 (stereo unspecified)", "%", 33),
    ("CCOc1ccc(C(=O)C2CN=C3C=C(C)C=CN3C2)cc1 (stereo unspecified)", "%", 97),
    ("COc1ccc(C(=O)C2CN=C3C(C)=CC=CN3C2)cc1OC (stereo unspecified)", "%", 102),
    ("CC1=CC2=NCC(C(=O)c3ccc4ccccc4c3)CN2C=C1 (stereo unspecified)", "%", 28),
]
